This collection of values is drawn from the METLIN SMRT retention time set (Domingo-Almenara et al. 2019).

- TEST: gradient 5% acetonitrile 3 min, to 50% in 2 min, to 85% in 15 min, held 3 min, 100 µL/min
- TEST CONTEXT: column: Zorbax Extend-C18 2.1 x 50 mm; eluents: water / acetonitrile, 0.1% formic acid
PARAMETER MEASURED: RP-LC retention time (s)
Numeric answer only, unit s assumed.

1) CN1C(=O)C(CC(=O)NCc2ccccn2)Sc2ncccc21 (centres undefined) | 762
2) CCOC(=O)N1CCN(C(=O)C2CCN(c3ncnc4c3oc3ccccc34)CC2)CC1 | 673
3) O=C(NCc1ccco1)C1CCCN(S(=O)(=O)Cc2ccc(Cl)cc2)C1 (centres undefined) | 888
4) O=c1c2cc3c(cc2nc(SCc2nc(-c4ccccc4)no2)n1CC1CCCO1)OCO3 (centres undefined) | 1100
5) O=C(Nc1ccc(F)cc1F)C1CCCN(S(=O)(=O)Cc2ccccc2)C1 (centres undefined) | 933

Problem: Answer with the recorded RP-LC retention time of Cc1noc(C2CN(C(=O)Nc3ccc(F)cc3F)CC23CCOCC3)n1 (centres undefined) only.
Solution: 695

Problem: Look up and report measured RP-LC retention time for this entry: COc1ccc(CCC(=O)N2CCC(n3nnc4cc(F)ccc4c3=O)CC2)cc1
Solution: 784

Problem: State its RP-LC retention time: COC(=O)c1ccc(NC(=O)CSc2nnc(-c3cccs3)o2)cc1
Solution: 648

Problem: Return RP-LC retention time for the following molecule: CCOC(=O)c1nc(NC(CC)CN(C)Cc2ccccc2)c2c(C)noc2n1 (centres undefined)
Solution: 672

----------
- TEST: gradient 5% acetonitrile 3 min, to 50% in 2 min, to 85% in 15 min, held 3 min, 100 µL/min
- TEST CONTEXT: column: Zorbax Extend-C18 2.1 x 50 mm; eluents: water / acetonitrile, 0.1% formic acid
We label by threshold. Values of RP-LC retention time strictly beneath 900 s are TRUE. Values of 900 s and up are FALSE.

# example entries with known answers
1) CCCCN(C)C(=O)c1cc2c(s1)N(CC)CCCC2 | FALSE
2) CC(C)Cn1ccc2c(cc(C(=O)Nc3ccc(Br)cc3)n2C)c1=O | FALSE
3) COc1cccc(C(=O)Nc2ccc3c(c2)Sc2ncccc2C(=O)N3C)c1OC | TRUE

# evaluate next
Problem: Please indicate whether the reported RP-LC retention time of Cc1ccnc(N2CCCC(C(=O)NCc3ccc(F)cc3Cl)C2)n1 (stereo not given) is strictly below 900 s.
Solution: TRUE

----------
- TEST: gradient 5% acetonitrile 3 min, to 50% in 2 min, to 85% in 15 min, held 3 min, 100 µL/min
- TEST CONTEXT: column: Zorbax Extend-C18 2.1 x 50 mm; eluents: water / acetonitrile, 0.1% formic acid
Reported RP-LC retention time values are given for each entry in this list.
Numbers only; they are read as s.

Completed entries (count: 8):
1. Cc1nnc2n1CCN(C(=O)c1n[nH]c3ccccc13)C2 | 558
2. Cc1ccc(NC(=O)Cn2nc3c(N4CCN(c5ccccc5)CC4)nccn3c2=O)cc1C | 975
3. Cc1cccc(CNC(=O)c2cccc(C3CCCN(C(=O)NC(C)C)C3)c2)c1 (stereo not given) | 894
4. CCOC(=O)/C=C/c1ccc(C(=O)OCC)[nH]1 | 947
5. CCn1c(=O)c(=O)n(CC(=O)NC(C)Cc2ccco2)c2cccnc21 (stereo not given) | 711
6. COc1ccc(-c2noc(-c3nc(-c4ccccc4F)no3)n2)cc1OC | 1110
7. CCOc1ccc(/C=C2\CCc3ccccc3C2=O)cc1 | 1290
8. Cn1c(CNC(=O)C2CCC2)nc2c1CN(C(=O)Cc1ccc(Cl)cc1)CC2 | 623

Problem: Quick one: give measured RP-LC retention time for O=C(C1CCN(S(=O)(=O)c2cc(-c3noc(C4CC4)n3)cs2)CC1)N1CCc2ccccc21
Solution: 1070

Problem: For the compound c1ccc(N2CCN(c3nnc(-n4cccc4CN4CCN(c5ccccn5)CC4)s3)CC2)cc1 , report RP-LC retention time.
Solution: 675
